# System under test: T1, murine GPC3 (6938-GP; R&D systems), biotinylated (murine, UniProt Q8CFZ4 25-558, limits assumed, biotinylated using standard NHS chemistry)
# T1 construct: Bought protein; also called mouse GPC3
# T1 sequence (Q8CFZ4 25-558 limits assumed): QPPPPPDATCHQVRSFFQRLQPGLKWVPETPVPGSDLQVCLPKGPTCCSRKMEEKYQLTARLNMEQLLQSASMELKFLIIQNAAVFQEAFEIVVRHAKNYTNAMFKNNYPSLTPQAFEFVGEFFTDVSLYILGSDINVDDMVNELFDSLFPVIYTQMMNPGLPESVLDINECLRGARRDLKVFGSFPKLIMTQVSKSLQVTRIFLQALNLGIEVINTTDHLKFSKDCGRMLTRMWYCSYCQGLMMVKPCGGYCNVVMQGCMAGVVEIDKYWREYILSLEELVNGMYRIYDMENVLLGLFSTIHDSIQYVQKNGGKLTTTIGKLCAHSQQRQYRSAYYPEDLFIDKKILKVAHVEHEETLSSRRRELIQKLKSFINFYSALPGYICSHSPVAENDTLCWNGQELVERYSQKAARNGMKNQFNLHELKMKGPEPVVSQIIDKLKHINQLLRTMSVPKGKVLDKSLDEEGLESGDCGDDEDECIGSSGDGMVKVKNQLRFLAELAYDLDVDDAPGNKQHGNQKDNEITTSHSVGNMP
# Assay: SPR (Biacore T200), biotinylated GPC3 captured on chip, mutein in flow
I'd be grateful if you could share measured kon for these entries.

*Q* # lookup: kon of lipocalin mutein of SEQ ID NO: 16 (designed binder, hNGAL (Lcn2) mutein; also called optimized GPC3 specific lipocalin mutein) QDSTSDLIPAPPLSKVPLQQNFQDNQFQGKWYVVGRAGNVGLREDKDPPKMRATIYELKEDKSYDVTGVRFDSKKVTYSIGTFVPGSQPGEFTLGQIKSEPGNTANLVRVVSTNYNQHAMVFFKEVYQNREIFFIILYGRTKELTSELKENFIRFSKSLGLPENHIVFPVPIDQAIDGSAWSHPQFEK
*A* 610000 M⁻¹ s⁻¹

*Q* Moving on to lipocalin mutein of SEQ ID NO: 6 (designed binder, hNGAL (Lcn2) mutein; also called optimized GPC3 specific lipocalin mutein) QDSTSDLIPAPPLSKVPLQQNFQDNQFQGKWYVVGVAGNVRLREDKDPPKMRATIYELKEDKSYDVTGVSFRGKKCHYKIGTFVPGSQPGEFTLGDIKSGPGETSNLVRVVSTNYNQHAMVFFKEVRQNREWFFITLYGRTKELTSELKENFIRFSKSLGLPENHIVFPVPIDQCIDGSAWSHPQFEK
*A* 2.2e+06 M⁻¹ s⁻¹
